# SUBJECT OF TEST: GST tagged LXRalpha LBD (ligand binding domain) (Homo sapiens, UniProt Q13133)
# Construct: purchased Invitrogen pv4655
# Sequence (Q13133 209-447 limits assumed): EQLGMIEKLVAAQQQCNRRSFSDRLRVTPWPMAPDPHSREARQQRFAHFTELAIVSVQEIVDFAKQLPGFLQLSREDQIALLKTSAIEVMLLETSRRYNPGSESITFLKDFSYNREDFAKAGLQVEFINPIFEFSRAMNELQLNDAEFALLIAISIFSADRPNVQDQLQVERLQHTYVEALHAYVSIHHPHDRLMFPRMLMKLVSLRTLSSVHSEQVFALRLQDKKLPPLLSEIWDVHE
# PROTOCOL TEXT: LanthaScreen TR-FRET Liver X Receptor Coactivator Assay, LXR alpha-LBD (co-activator recruitment; IP and % Emax relative to T0901317)
# Assay type: biochemical
# MEASUREMENT CONDITIONS: efficacy at max dose in relation to reference T0901317, LXR alpha-LBD; read-out: LXR alpha actiivty at max dose (%)
EXPERIMENTAL ENDPOINT: Emax (%)

// known answers, use as guide
[[record]]
compound = "COc1cccc([C@@](O)(C(=O)N(C)CCCC2CCN(c3ccc(C(=O)N(C)C4CC4)c(Cl)n3)CC2)C(F)(F)F)c1"
endpoint_result = 0

[[record]]
compound = "CN(C)C(=O)c1ccc(N2CCC([C@H]3C[C@H](N(C)C(=O)[C@](O)(c4cccc(C5CC5)c4)C(F)(F)F)C3)CC2)nc1Cl"
endpoint_result = 14

[[record]]
compound = "COc1cccc([C@@](O)(C(=O)N(C)[C@H]2C[C@@H](C3CCN(c4ccc(C(=O)N(C)C)c(Cl)n4)CC3)C2)C(F)(F)F)c1"
endpoint_result = 13

[[record]]
compound = "COc1cccc([C@@](O)(C(=O)NCCCC2CCN(c3ccc(C(=O)N(C)C)c(Cl)n3)CC2)C(F)(F)F)c1.O=C(O)C(F)(F)F"
endpoint_result = 17

[[record]]
compound = "COc1cccc([C@@](O)(C(=O)N(C)CC[C@H]2CC23CCN(c2ccc(C(=O)NC4CC4)c(Cl)c2)CC3)C(F)(F)F)c1"
endpoint_result = 25


a: CC(C)=C(C(=O)N(C)CCCC1CCN(c2ccc(C(=O)N(C)C)c(Cl)n2)CC1)c1ccccc1
b: COc1cccc([C@@](O)(C(=O)N(C)CCC2CC3(CCN(c4ccc(C(=O)N(C)C)c(Cl)n4)CC3)C2)C(F)(F)F)c1
Ask | Decide: a or b , by lowest recorded Emax. Label of pick, please.
Reply | a
(a: 0%, b: 26%)

a: COc1cccc([C@@](O)(C(=O)NCC[C@H]2CC23CCN(c2ccc(C(=O)N(C)C)c(Cl)c2)CC3)C(F)(F)F)c1
b: COc1cccc([C@@](O)(C(=O)N(C)CC[C@@H]2CC23CCN(c2ccc(C(=O)NC4CC4)c(Cl)c2)CC3)C(F)(F)F)c1
c: Cc1cccc([C@](O)(C(=O)N(C)CCCC2CCN(c3ccc(C(=O)N(C)C)c(Cl)n3)CC2)C(F)(F)F)c1
d: CN(C)C(=O)c1ccc(N2CCC(CCCN(C)C(=O)[C@]3(c4ccccc4F)CCCO3)CC2)nc1Cl
e: CN(C)C(=O)c1ccc(N2CCC(CCCN(C)C(=O)[C@@]3(C(F)(F)F)CCCO3)CC2)nc1Cl
Ask | Ascending sort, Emax. Respond with the label ranking, as requested.
Reply | c, b, a, d, e

I: CNC(=O)c1ccc(N2CCC(CC3CC(NC(=O)[C@](O)(c4ccccc4)C(F)(F)F)C3)CC2)cc1Cl (some centres unmarked)
II: CN(CC[C@H]1CC12CCN(c1ccc(C(=O)NC3CC3)c(Cl)c1)CC2)C(=O)[C@](O)(c1ccccc1)C(F)(F)F
Ask | Param metric = Emax; output whichever of I , II has the minimum value. Write down the label of the entry you select.
Reply | I
(I: 22%, II: 42%)

P: COc1cccc([C@@](O)(C(=O)NC[C@@H](C)CC2CCN(c3ccc(C(=O)N(C)C)c(Cl)n3)CC2)C(F)(F)F)c1
Q: CN(C)C(=O)c1ccc(N2CCC(CCCN(C)C(=O)[C@](O)(c3cccc(C4CC4)c3)C(F)(F)F)CC2)nc1Cl
R: CN(C)C(=O)c1ccc(N2CCC([C@H]3C[C@H]3CNC(=O)[C@](O)(c3ccccc3)C(F)(F)F)CC2)nc1Cl
S: CN(C)C(=O)c1ccc(N2CCC3(CC2)CC3CCN(C)C(=O)[C@@](O)(c2ccccc2)C(F)(F)F)cc1Cl (some centres unmarked)
Ask | Let's sort these by Emax, smallest first. Go ahead? Please reply with the labels ordered as requested. Many thanks.
Reply | Q, S, P, R
(Q: 0%, S: 10%, P: 19%, R: 39%)

A: CN(C)C(=O)c1ccc(N2CCC(CCCN(C)C(=O)[C@@]3(c4ccccc4)CCOC3)CC2)nc1Cl
B: CN(C)C(=O)c1ccc(N2CCC(CCCNC(=O)[C@](O)(c3cccc(O)c3)C(F)(F)F)CC2)nc1Cl
Ask | Select one: A or B . Criterion: greater recorded Emax. # respond with the chosen item's label
Reply | B
(B: 31%, A: 16%)

A: COc1cccc([C@@](O)(C(=O)N(C)C[C@H](C)CC2CCN(c3ccc(C(=O)N(C)C)c(Cl)n3)CC2)C(F)(F)F)c1 (single isomer, unassigned)
B: CC(C)[C@@](O)(C(=O)N(C)CCCC1CCN(c2ccc(C(=O)N(C)C)c(Cl)n2)CC1)C(F)(F)F
C: CN(C)C(=O)c1ccc(N2CCC(CCCN(C)C(=O)[C@](O)(c3cccc(C(F)(F)F)c3)C(F)(F)F)CC2)nc1Cl
Ask | Descending sort on Emax required. Use the labels to give the requested order.
Reply | B, A, C
